In this section we review reported IC50 values for a set of compounds.
Tested on: 475296-252-R-J1-PDC spheroid viability
Assay: Anticancer human tumor 475296-252-R-J1-PDC patient-derived rectal carcinoma cell line growth inhibition [PI3K]
Conditions: curve of first compound; second compound 1 µM; spheroids with HUVEC and MSC

Here is how some compounds turned out for IC50.
CC(C)NCC(C(=O)N1CCN(c2ncnc3c2C(C)CC3O)CC1)c1ccc(Cl)cc1 (stereo not drawn) + CC(Nc1ncnc2nc[nH]c12)c1cc2cccc(Cl)c2c(=O)n1-c1ccccc1	> 10 µM
Cn1ncc(Cl)c1-c1cc(C(=O)NC(CN)Cc2cccc(F)c2)sc1Cl (stereo not drawn) + CC(Nc1ccc2c(c1)OCCn1cc(N3C(=O)OCC3C(F)F)nc1-2)C(N)=O	5.46 µM

Now let's try a different one.
In plain terms, C=CC(=O)N1CCN(c2nc(=O)n(-c3c(C)ccnc3C(C)C)c3nc(-c4c(O)cccc4F)c(F)cc23)C(C)C1 (stereo not drawn) + CC(Nc1ccc2c(c1)OCCn1cc(N3C(=O)OCC3C(F)F)nc1-2)C(N)=O has a documented IC50 of > 10 µM

====

Test system: 475296-252-R-J1-PDC spheroid viability
Test: Anticancer human tumor 475296-252-R-J1-PDC cell line growth inhibition [PI3K];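 note: spheroids exposed to agents for seven days before readout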
Details: curve of first compound; second compound 0.0316 µM; spheroids with HUVEC and MSC
ASSAY_ENDPOINT: IC50

Some entries whose results are on file:
CC(C)NCC(C(=O)N1CCN(c2ncnc3c2C(C)CC3O)CC1)c1ccc(Cl)cc1 (stereo not drawn) + COc1c(OCCCN2CCOCC2)ccc2c3n(c(=NC(=O)c4cnc(N)nc4)nc12)CCN3	> 10 µM
Cn1ncnc1[C@H]1c2n[nH]c(=O)c3cc(F)cc(c23)N[C@@H]1c1ccc(F)cc1 + Cc1nc(NC(=O)N2CCCC2C(N)=O)sc1-c1ccnc(C(C)(C)C(F)(F)F)c1	> 0.1 µM

Read the next record carefully.
According to the records, this compound C[C@@H](NC(=O)c1ncnc(N)c1Cl)c1ncc(C(=O)Nc2cc(C(F)(F)F)c(Cl)cn2)s1 + CC(Nc1ncnc2nc[nH]c12)c1cc2cccc(Cl)c2c(=O)n1-c1ccccc1 displays IC50 of > 10 µM

====

The compounds listed here are annotated with their viability, T/C.
Test system: 475296-252-R-J1-PDC spheroid viability
Experiment: Anticancer human tumor 475296-252-R-J1-PDC cell line growth inhibition [PI3K];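 note: spheroids exposed to agents for seven days before readout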
Settings: second compound 0.1 µM; first compound 0.00949 µM; stronger effect = lower value; spheroids with HUVEC and MSC
Give just the numeric value; % need not be written.

Worked examples follow.
Cn1cnc2c(F)c(Nc3ccc(Br)cc3Cl)c(C(=O)NOCCO)cc21 + CC(Nc1ccc2c(c1)OCCn1cc(N3C(=O)OCC3C(F)F)nc1-2)C(N)=O	78.8
Cn1cnc2c(F)c(Nc3ccc(Br)cc3Cl)c(C(=O)NOCCO)cc21 + COc1c(OCCCN2CCOCC2)ccc2c3n(c(=NC(=O)c4cnc(N)nc4)nc12)CCN3	65
Cn1cnc2c(F)c(Nc3ccc(Br)cc3Cl)c(C(=O)NOCCO)cc21 + CC(Nc1ncnc2nc[nH]c12)c1cc2cccc(Cl)c2c(=O)n1-c1ccccc1	95.8

The recorded viability, T/C with 475296-252-R-J1-PDC spheroid viability for Cn1cnc2c(F)c(Nc3ccc(Br)cc3Cl)c(C(=O)NOCCO)cc21 + Cc1nc(NC(=O)N2CCCC2C(N)=O)sc1-c1ccnc(C(C)(C)C(F)(F)F)c1 was 91.7

====

Tested on: 475296-252-R-J1-PDC spheroid viability
Test: Anticancer human tumor 475296-252-R-J1-PDC cell line growth inhibition [PI3K];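 note: spheroids exposed to agents for seven days before readout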
Conditions: curve of first compound; second compound 0.01 µM; spheroids with HUVEC and MSC
ASSAY_ENDPOINT: IC50

C#Cc1c(F)ccc2cc(O)cc(-c3ncc4c(N5CC6CCC(C5)N6)nc(OCC56CCCN5CC(F)C6)nc4c3F)c12 (stereo unspecified) + CC(Nc1ccc2c(c1)OCCn1cc(N3C(=O)OCC3C(F)F)nc1-2)C(N)=O	> 10 µM
C=CC(=O)N1CCN(c2nc(=O)n(-c3c(C)ccnc3C(C)C)c3nc(-c4c(O)cccc4F)c(F)cc23)C(C)C1 (stereo unspecified) + COc1c(OCCCN2CCOCC2)ccc2c3n(c(=NC(=O)c4cnc(N)nc4)nc12)CCN3	> 10 µM
CC(C)n1nc(-c2ccc3oc(N)nc3c2)c2c(N)ncnc21 + CC(Nc1ccc2c(c1)OCCn1cc(N3C(=O)OCC3C(F)F)nc1-2)C(N)=O	> 0.1 µM

Input CC(Cn1ccc(-c2ccc(C#N)c(Cl)c2)n1)NC(=O)c1cc(C(C)O)[nH]n1 (stereo unspecified) + CC(Nc1ccc2c(c1)OCCn1cc(N3C(=O)OCC3C(F)F)nc1-2)C(N)=O . Output IC50: > 10 µM

response.value for Cn1ncc(Cl)c1-c1cc(C(=O)NC(CN)Cc2cccc(F)c2)sc1Cl (stereo unspecified) + CC(Nc1ccc2c(c1)OCCn1cc(N3C(=O)OCC3C(F)F)nc1-2)C(N)=O (field: IC50) = > 10 µM

Briefly, IC50 measured for Cn1ncnc1[C@H]1c2n[nH]c(=O)c3cc(F)cc(c23)N[C@@H]1c1ccc(F)cc1 + COc1c(OCCCN2CCOCC2)ccc2c3n(c(=NC(=O)c4cnc(N)nc4)nc12)CCN3 : > 0.1 µM

====

Test system: 475296-252-R-J1-PDC spheroid viability
Test: Anticancer human tumor 475296-252-R-J1-PDC cell line growth inhibition [PI3K];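 note: spheroids exposed to agents for seven days before readout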
Details: second compound 1 µM; first compound 0.0949 µM; stronger effect = lower value; spheroids with HUVEC and MSC
Recorded measurements of viability, T/C, one per entry
Unit % implied. Number only.

Cn1cnc2c(F)c(Nc3ccc(Br)cc3Cl)c(C(=O)NOCCO)cc21 + CC(Nc1ccc2c(c1)OCCn1cc(N3C(=O)OCC3C(F)F)nc1-2)C(N)=O	57
Cn1cnc2c(F)c(Nc3ccc(Br)cc3Cl)c(C(=O)NOCCO)cc21 + CC(Nc1ncnc2nc[nH]c12)c1cc2cccc(Cl)c2c(=O)n1-c1ccccc1	81.4
Cn1cnc2c(F)c(Nc3ccc(Br)cc3Cl)c(C(=O)NOCCO)cc21 + Cc1nc(NC(=O)N2CCCC2C(N)=O)sc1-c1ccnc(C(C)(C)C(F)(F)F)c1	69

We now examine a further compound.
Entry Cn1cnc2c(F)c(Nc3ccc(Br)cc3Cl)c(C(=O)NOCCO)cc21 + COc1c(OCCCN2CCOCC2)ccc2c3n(c(=NC(=O)c4cnc(N)nc4)nc12)CCN3 — recorded viability, T/C = 22.2

====

System: 475296-252-R-J1-PDC spheroid viability
Assay: Anticancer human tumor 475296-252-R-J1-PDC cell line growth inhibition [PI3K];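 note: spheroids exposed to agents for seven days before readout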
Settings: second compound 3.16 µM; first compound 1 µM; stronger effect = lower value; spheroids with HUVEC and MSC
Listing: viability, T/C of selected molecules
# value in %; strip the unit string

Please review the following examples before continuing.
CCCS(=O)(=O)Nc1ccc(F)c(C(=O)c2c[nH]c3ncc(-c4ccc(Cl)cc4)cc23)c1F + CC(Nc1ncnc2nc[nH]c12)c1cc2cccc(Cl)c2c(=O)n1-c1ccccc1	100
CC1(C)CCC(Nc2ncc(C(F)(F)F)c(-c3c[nH]c4c(P(C)(C)=O)c(C#N)ccc34)n2)CN1 (stereo not drawn) + Cc1nc(NC(=O)N2CCCC2C(N)=O)sc1-c1ccnc(C(C)(C)C(F)(F)F)c1	121

// C#Cc1c(F)ccc2cc(O)cc(-c3ncc4c(N5CC6CCC(C5)N6)nc(OCC56CCCN5CC(F)C6)nc4c3F)c12 (stereo not drawn) + CC(Nc1ncnc2nc[nH]c12)c1cc2cccc(Cl)c2c(=O)n1-c1ccccc1 : viability, T/C value = 61

Form: molecule = CC(C)NCC(C(=O)N1CCN(c2ncnc3c2C(C)CC3O)CC1)c1ccc(Cl)cc1 (stereo not drawn) + Cc1nc(NC(=O)N2CCCC2C(N)=O)sc1-c1ccnc(C(C)(C)C(F)(F)F)c1 ; viability, T/C = 89.4

Per the records, this molecule ( C=CC(=O)N1CCN(c2nc(=O)n(-c3c(C)ccnc3C(C)C)c3nc(-c4c(O)cccc4F)c(F)cc23)C(C)C1 (stereo not drawn) + CC(Nc1ncnc2nc[nH]c12)c1cc2cccc(Cl)c2c(=O)n1-c1ccccc1 ) has viability, T/C equal to 107

Lookup result for CNC(=O)c1ccc(N2C(=S)N(c3ccc(C#N)c(C(F)(F)F)c3)C(=O)C2(C)C)cc1F + CC(Nc1ncnc2nc[nH]c12)c1cc2cccc(Cl)c2c(=O)n1-c1ccccc1 ; measured viability, T/C: 103

Entry under test: C#Cc1c(F)ccc2cc(O)cc(-c3ncc4c(N5CC6CCC(C5)N6)nc(OCC56CCCN5CC(F)C6)nc4c3F)c12 (stereo not drawn) + Cc1nc(NC(=O)N2CCCC2C(N)=O)sc1-c1ccnc(C(C)(C)C(F)(F)F)c1 . Its viability, T/C was 44.8

// sample Cn1nccc1Nc1nccc(-c2ccn(C(CO)c3ccc(Cl)c(F)c3)c(=O)c2)n1 (stereo not drawn) + CC(Nc1ncnc2nc[nH]c12)c1cc2cccc(Cl)c2c(=O)n1-c1ccccc1 , its viability, T/C was 80.4

The molecule CC1(C)CCC(Nc2ncc(C(F)(F)F)c(-c3c[nH]c4c(P(C)(C)=O)c(C#N)ccc34)n2)CN1 (stereo not drawn) + CC(Nc1ncnc2nc[nH]c12)c1cc2cccc(Cl)c2c(=O)n1-c1ccccc1 showed viability, T/C equal to 113

Recorded viability, T/C (molecule Cn1ncc(Cl)c1-c1cc(C(=O)NC(CN)Cc2cccc(F)c2)sc1Cl (stereo not drawn) + CC(Nc1ncnc2nc[nH]c12)c1cc2cccc(Cl)c2c(=O)n1-c1ccccc1 ): 50.9
